- assay.overview: Toxicology study of VD in canines: 5-day continuous subcutaneous infusion, plasma VD by radioimmunoassay, clinical observations
- Format: in vivo
- assay.conditions: male, beagle, dog, in vivo, sc
Ends that are not written are not given here.
readout.type: Tmax (h)
Write the value in h as a bare number.

The sequence listed as EVVPPQVLSEPNEEAGAALSPLPEVPPWTGEVSPAQR [VD, Vessel Dilator] shows Tmax equal to 120

* * *

- assay.overview: Toxicology study of VD in rats: 5-day continuous subcutaneous infusion by Alzet minipumps, plasma VD by radioimmunoassay, clinical observations
- Type: in vivo
- assay.conditions: female, Sprague Dawley, rat, in vivo, sc, 3.6 mg
Ends that are not written are not given here.
readout.type: level at 4 h (ng/mL)
Number in ng/mL, nothing else.

The reported level at 4 h of the sequence EVVPPQVLSEPNEEAGAALSPLPEVPPWTGEVSPAQR [VD, Vessel Dilator] was 725

* * *

- assay.overview: Toxicology study of VD in rats: 5-day continuous subcutaneous infusion by Alzet minipumps, plasma VD by radioimmunoassay, clinical observations
- Format: in vivo
- assay.conditions: Sprague Dawley, rat, in vivo, sc, 0.18 mg total dose; male rats N=3, 0.180 mg, 8 hours post-dosing; read-out: Mean concentration of vessel dilator in plasma
Ends that are not written are not given here.
readout.type: level at 8 h (ng/mL)
Please respond with the number in ng/mL and leave the unit unwritten.

The value of level at 8 h measured for the sequence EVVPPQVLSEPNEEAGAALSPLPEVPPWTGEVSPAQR [VD, Vessel Dilator] turned out to be 11.9

* * *

- assay.overview: Toxicology study of VD in rats: 5-day continuous subcutaneous infusion by Alzet minipumps, plasma VD by radioimmunoassay, clinical observations
- Type: in vivo
- assay.conditions: Sprague Dawley, rat, in vivo, sc, 3.6 mg; male rats N=3, 3.60 mg, 4 hours post-dosing; read-out: Mean concentration of vessel dilator in plasma
Ends that are not written are not given here.
readout.type: level at 4 h (ng/mL)
All answers are understood in ng/mL, so give the number only.

Summary for this sequence, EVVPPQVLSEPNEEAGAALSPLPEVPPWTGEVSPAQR [VD, Vessel Dilator] : level at 4 h is 370

* * *

- assay.overview: Toxicology study of VD in canines: 5-day continuous subcutaneous infusion, plasma VD by radioimmunoassay, clinical observations
- Type: in vivo
- assay.conditions: beagle, dog, in vivo; female canine, both dosages, after start of infusion; read-out: Tmax
Ends that are not written are not given here.
readout.type: Tmax

Reported Tmax of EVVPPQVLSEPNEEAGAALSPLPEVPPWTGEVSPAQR [VD, Vessel Dilator] : ~96 h

* * *

- assay.overview: Toxicology study of VD in rats: 5-day continuous subcutaneous infusion by Alzet minipumps, plasma VD by radioimmunoassay, clinical observations
- Type: in vivo
- assay.conditions: female, Sprague Dawley, rat, in vivo, sc, 0.18 mg
- Description: VD was administered to a rat model via a subcutaneous delivery route to assess the toxicity of VD and to determine if a lethal dosing amount of the VD can be reached by subcutaneous administration. As noted above, a maximum tolerated or lethal dosing amount was not observed for canines. VD-acetate (Bachem lot 2502022) was prepared in the Tris/Glycerin/m-cresol buffer at a concentration of 3 mg/mL or 15 mg/mL. […]
Ends that are not written are not given here.
readout.type: level at 120 h (ng/mL)
// units = ng/mL; emit number, no label

Summary for this sequence, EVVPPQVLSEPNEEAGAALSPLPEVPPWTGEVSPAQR [VD, Vessel Dilator] : level at 120 h is 27.1
